# Test system: Enterococcus faecium
# Protocol details: Minimum concentration required to prevent the growth of nonresistant stock strain Enterococcus faecium 19434 from American Type Culture Collection (ATCC)
# Assay type: functional
# Condition info: Enterococcus faecium; read-out: MIC
Reported values of MIC for individual entries

Compound: O=C(O)c1cn(C2CC2)c2cc(N3CCN(CCCO[C@@H]4O[C@@H](CO)[C@H](O)[C@H](O)[C@@H]4O)CC3)c(F)cc2c1=O
MIC: > 32 µg/mL

Compound: Cl.O=C(O)c1cn(C2CC2)c2cc(N3CCNCC3)c(F)cc2c1=O [CIPROFLOXACIN HYDROCHLORIDE]
MIC: 8 µg/mL

Compound: O=C(O)c1cn(C2CC2)c2cc(N3CCN(C4OC(CO)C(O)C(O)C4O)CC3)c(F)cc2c1=O (stereo in doubt; form 1)
MIC: 8 µg/mL

Compound: O=C(O)c1cn(C2CC2)c2cc(N3CCN(CCO[C@@H]4O[C@@H](CO)[C@@H](O)[C@H](O)[C@@H]4O)CC3)c(F)cc2c1=O
MIC: > 32 µg/mL

Compound: O=C(O)c1cn(C2CC2)c2cc(N3CCN(CCCO[C@@H]4O[C@@H](CO)[C@@H](O)[C@H](O)[C@@H]4O)CC3)c(F)cc2c1=O
MIC: > 32 µg/mL

Compound: O=C(O)c1cn(C2CC2)c2cc(N3CCN(CCO[C@@H]4O[C@@H](CO)[C@H](O)[C@H](O)[C@@H]4O)CC3)c(F)cc2c1=O
MIC: > 32 µg/mL
